Origin of the recorded values: patent US20250011397A1

Target: SARS-CoV-2 Spike on HIV-based pseudotyped virus (Spike plasmid BEI NR52310) (SARS-CoV-2, UniProt P0DTC2 14-1273)
Protocol details: cell-based or functional assay

{"Binder": "mAb 180 (antibody, V domains shown) VH: QVQLVQSGAEVKKPGSSVKVSCKASGYTFTSYAMHWVRQAPGQGLEWMGRISPRSGGTKYAQRFQGRVTITADESTSTAYMELSSLRSEDTAVYYCAREAVAGTHPQAGDFDLWGRGTLVTVSS VL: DIVMTQSPLSLPVTPGEPASISCRSSQSLLHSNGYNYLDWYLQKPGQSPQLLIYAASSLQSGVPDRFSGSGSGTDFTLKISRVEAEDVGVYYCQQYYSSPYTFGQGTKLEIKR", "IC50 SARS-CoV2 PsV (µg/mL), IgG": "> 50 µg/mL"}
{"Binder": "mAb 160 (antibody, V domains shown, also called IgG 160) VH: QVQLVQSGAEVKKPGASVKVSCKASGYTFTGHDMHWVRQAPGQGLEWMGIINPSGGSTSYAQKFQGRVTMTRDTSTSTVYMELSSLRSEDTAVYYCARANSLRYYYGMDVWGQGTMVTVSS VL: DIQMTQSPSSLSASVGDRVTITCRASQSVSSWLAWYQQKPGKAPKLLIYAASSLQSGVPSRFSGSGSGTDFTLTISSLQPEDFATYYCQQGYTTPYTFGQGTKLEIKR", "IC50 SARS-CoV2 PsV (µg/mL), IgG": "> 50 µg/mL"}
{"Binder": "mAb 158 (antibody, V domains shown, also called IgG 158) VH: QVQLVQSGAEVKKPGASVKVSCKASGYTFTGYYMHWVRQAPGQGLEWMGWINPLNGGTNFAPKFQGRVTMTRDTSTSTVYMELSSLRSEDTAVYYCARDPGGSYSNDAFDIWGQGTLVTVSS VL: DIQMTQSPSSLSASVGDRVTITCRASQSISRYLNWYQQKPGKAPKLLIYDASNLESGVPSRFSGSGSGTDFTLTISSLQPEDFATYYCQQANSFPLTFGGGTKVDIKR", "IC50 SARS-CoV2 PsV (µg/mL), IgG": "> 50 µg/mL"}
